These data points were gathered from PubChem BioAssay (NCI).

System: HL-60(TB) leukemia
Assay: NCI tumour cell line growth inhibition, 48 h; in the data active = GI50 below about 0.43 µM; inactive = the rest
Possible outcomes: YES (active), NO (inactive)

COC(=O)c1ccc2c(c1)nc(-c1cc3ccccc3[nH]c1=O)n2-c1cc(C(C)(C)C)[nH]n1 ... NO
N#Cc1c(-c2ccc(Cl)cc2)n(O)c2ccccc12 ... NO
COc1ccc(Nn2c(SCC(=O)Nc3nc(-c4ccc(Cl)cc4)cs3)nc(C)c2C)cc1 ... NO
COc1ccc(NC(=O)n2nc(N)c3ccccc32)cc1OC ... NO
CC(=O)N1CC(Nc2ccc(OC(F)(F)F)cc2)=CC1=O ... NO
COc1cccc(C2C(C#N)=C(N)Oc3cc(N)ccc32)c1 (centres undefined) ... YES
NC(=NCCCOc1ccc(Cl)cc1)Nc1ccc(Cl)cc1 ... NO
COCC1CCCN1c1ccc(/C=C(/C#N)C(N)=S)cc1 (centres undefined) ... NO
Cc1cc2cc3cc(C)c(N(C)C)cc3nc2cc1N(C)C ... YES
